Tested on: rodent lifetime carcinogenesis bioassay, tumor incidence TD50
Experiment: carcinogenic potency in animals, long-term in vivo studies, CPDB compilation (AID 1745844)
Conditions: rat; strain Sprague-Dawley; males; i.p.; site: skin; lesion: squamous-cell carcinoma; dosed 32 weeks; study length 79 weeks
reported_endpoint: TD50

Need TD50 of S=P(N1CC1)(N1CC1)N1CC1 , thanks.
0.155 mg/kg/day

----------
Tested on: rodent lifetime carcinogenesis bioassay, tumor incidence TD50
Assay: carcinogenic potency in animals, long-term in vivo studies, CPDB compilation (AID 1745844)
Conditions: rat; strain Wistar; males; in drinking water; site: thyroid gland; lesion: follicular-cell adenoma, bilateral + follicular-cell adenoma; dosed 103 weeks; study length 103 weeks
reported_endpoint: TD50 (mg/kg/day)
# value in mg/kg/day; strip the unit string

Look at this molecule and give its reported TD50. c1ccncc1
38.4

Reference source for all entries: PubChem BioAssay AID1745844
